Measured values drawn from patent US20260042762A1 for this set.

Target of assay: MerTK (Homo sapiens, UniProt Q12866)
Construct: endogenous in cells; host or cells: Jurkat cells
Experimental details: MerTk degradation in Jurkat cells (Western blot)
Assay type: cell-based
Details: Jurkat, 4 h, 0.001-1 μM, 4 hour-incubation at 37° C., read-out: Jurkat Max % MerTK Degradation
Where a name gives a salt, the structure may show the parent alone.
Quantity: Dmax

Molecule: CN(C)c1cccc2c(S(=O)(=O)Nc3cccc(-c4cnc(NCCOCCOCCN5CCN(Cc6ccc(-c7cn([C@H]8CC[C@H](O)CC8)c8nc(NCCC(F)(F)F)ncc78)cc6)CC5)nc4N4CCC(c5ccccc5)C4C(=O)O)c3)cccc12 (stereo partly shown) [I-168]
Target of assay: MerTK (Homo sapiens, UniProt Q12866)
Data value: < 20%

Molecule: CN1CCN(Cc2ccc(-c3ccc(CO[C@H]4CCC[C@@H]4NC(=O)c4cc(-c5cnn(CCOCCCc6ccc7c(c6)n(C)c(=O)n7C6CCC(=O)NC6=O)c5)cnc4N)cc3)cc2)CC1 (stereo partly shown) [I-217]
Target of assay: MerTK (Homo sapiens, UniProt Q12866)
Data value: 20 to 50%

Molecule: Cn1c(=O)n([C@H]2CCC(=O)NC2=O)c2ccc(CCCOCCOCCC3CCN(C[C@H]4CC[C@H](c5cn([C@H]6CC[C@H](O)CC6)c6nc(NCCC(F)(F)F)ncc65)CC4)CC3)cc21 [I-164]
Target of assay: MerTK (Homo sapiens, UniProt Q12866)
Data value: > 50%

Molecule: CCC[C@H](C)Nc1ncc2c(n1)n([C@H]1CC[C@H](O)CC1)cc2[C@H]1CC[C@@H](CN2CCN(CCCOC3CCN(Cc4ccc5c(c4)n(C)c(=O)n5C4CCC(=O)NC4=O)CC3)CC2)CC1 (stereo partly shown) [I-207]
Target of assay: MerTK (Homo sapiens, UniProt Q12866)
Data value: > 50%

Molecule: O=C(c1ccc(CNCc2ccc(-c3ccc4c(cnn4CC4CC4)c3)cc2)cc1)N1CCC(C2CCN(Cc3ccc(-c4cn([C@H]5CC[C@H](O)CC5)c5nc(NCCC(F)(F)F)ncc45)cc3)CC2)CC1 [I-202, formic acid]
Target of assay: MerTK (Homo sapiens, UniProt Q12866)
Data value: < 20%

Molecule: Cn1c(=O)n([C@H]2CCC(=O)NC2=O)c2ccc(Cn3cc(CN4CCN(Cc5ccc(-c6cn([C@H]7CC[C@H](O)CC7)c7nc(NCCC(F)(F)F)ncc67)cc5)CC4)nn3)cc21 [I-113]
Target of assay: MerTK (Homo sapiens, UniProt Q12866)
Data value: > 50%

Molecule: C[C@H]1CN(Cc2ccc(-c3cn([C@H]4CC[C@H](O)CC4)c4nc(NCCC(F)(F)F)ncc34)cc2)CCN1CCCOCCCc1ccc2c(c1)n(C)c(=O)n2C1CCC(=O)NC1=O (stereo partly shown) [I-106]
Target of assay: MerTK (Homo sapiens, UniProt Q12866)
Data value: > 50%

Molecule: Cn1c(=O)n([C@H]2CCC(=O)NC2=O)c2cccc(CCCOCCOCCN3CCN(Cc4ccc(-c5cn([C@H]6CC[C@H](O)CC6)c6nc(NCCC(F)(F)F)ncc56)cc4)CC3)c21 [I-135]
Target of assay: MerTK (Homo sapiens, UniProt Q12866)
Data value: > 50%

Molecule: Cc1ncsc1-c1ccc(CNC(=O)[C@@H]2C[C@@H](O)CN2C(=O)[C@@H](NC(=O)COCCOCCOCCN2CCN(Cc3ccc(-c4cn([C@H]5CC[C@H](O)CC5)c5nc(NCCC(F)(F)F)ncc45)cc3)CC2)C(C)(C)C)cc1 [I-166]
Target of assay: MerTK (Homo sapiens, UniProt Q12866)
Data value: > 50%

Molecule: O=C1CC[C@H](n2c3ccccc3c3c(CCCOCCOCCN4CCN(Cc5ccc(-c6cn([C@H]7CC[C@H](O)CC7)c7nc(NCCC(F)(F)F)ncc67)cc5)CC4)ccnc32)C(=O)N1 [I-126]
Target of assay: MerTK (Homo sapiens, UniProt Q12866)
Data value: > 50%

Molecule: Cn1c(=O)n(C2CCC(=O)NC2=O)c2ccc(CCCCN3CCC(N4CCN(Cc5ccc(-c6cn([C@H]7CC[C@H](O)CC7)c7nc(NCCC(F)(F)F)ncc67)cc5)CC4)C3)cc21 (stereo partly shown) [I-123, formic acid]
Target of assay: MerTK (Homo sapiens, UniProt Q12866)
Data value: > 50%

Molecule: O=C1CC[C@H](n2c3ccc(CCCOCCOCCN4CCN(Cc5ccc(-c6cn([C@H]7CC[C@H](O)CC7)c7nc(NCCC(F)(F)F)ncc67)cc5)CC4)cc3c3cccnc32)C(=O)N1 [I-125]
Target of assay: MerTK (Homo sapiens, UniProt Q12866)
Data value: > 50%

Molecule: Cn1c(=O)n([C@H]2CCC(=O)NC2=O)c2ccc(CCCOCCN3CCC(N4CCN(Cc5ccc(-c6cn([C@H]7CC[C@H](O)CC7)c7nc(NCCC(F)(F)F)ncc67)cc5)CC4)CC3)cc21 [I-94]
Target of assay: MerTK (Homo sapiens, UniProt Q12866)
Data value: > 50%

Molecule: Cc1ncsc1-c1ccc(CNC(=O)[C@@H]2C[C@@H](O)CN2C(=O)[C@@H](NCCNCCCCCN2CCN(Cc3ccc(-c4cn([C@H]5CC[C@H](O)CC5)c5nc(NCCC(F)(F)F)ncc45)cc3)CC2)C(C)(C)C)cc1 [I-68, dihydrochloride]
Target of assay: MerTK (Homo sapiens, UniProt Q12866)
Data value: < 20%

Molecule: CCCCNc1ncc2c(-c3ccc(CN4CCC(OCCCOCCCc5ccc6c(c5)n(C)c(=O)n6[C@H]5CCC(=O)NC5=O)CC4)cc3)cn([C@H]3CC[C@H](O)CC3)c2n1 [I-66]
Target of assay: MerTK (Homo sapiens, UniProt Q12866)
Data value: > 50%

Molecule: Cn1c(=O)n(C2CCC(=O)NC2=O)c2ccc(CCCCN3CCCC(N4CCN(Cc5ccc(-c6cn([C@H]7CC[C@H](O)CC7)c7nc(NCCC(F)(F)F)ncc67)cc5)CC4)C3)cc21 (stereo partly shown) [I-121]
Target of assay: MerTK (Homo sapiens, UniProt Q12866)
Data value: > 50%

Molecule: Cn1c(=O)n([C@H]2CCC(=O)NC2=O)c2ccc(CCCOCCOCCN3CCN(C[C@H]4CC[C@H](c5cn([C@H]6CC[C@H](O)CC6)c6nc(NCCC(F)(F)F)ncc65)CC4)CC3)cc21 [I-154]
Target of assay: MerTK (Homo sapiens, UniProt Q12866)
Data value: > 50%

Molecule: CCCCNc1ncc2c(-c3ccc(CN4CCN(CCOCCOCCCc5ccc6c(c5)n(C)c(=O)n6[C@H]5CCC(=O)NC5=O)CC4)cc3)cn([C@H]3CC[C@H](O)CC3)c2n1 [I-42, formic acid]
Target of assay: MerTK (Homo sapiens, UniProt Q12866)
Data value: > 50%

Molecule: Cn1c(=O)n([C@H]2CCC(=O)NC2=O)c2ccc(COCCN3CCN(Cc4ccc(-c5cn([C@H]6CC[C@H](O)CC6)c6nc(NCCC(F)(F)F)ncc56)cc4)CC3)cc21 [I-151]
Target of assay: MerTK (Homo sapiens, UniProt Q12866)
Data value: > 50%

###

Target of assay: MerTK (Homo sapiens)
Construct: endogenous in cells; host or cells: Jurkat cells
Sequence (Q12866 21-999): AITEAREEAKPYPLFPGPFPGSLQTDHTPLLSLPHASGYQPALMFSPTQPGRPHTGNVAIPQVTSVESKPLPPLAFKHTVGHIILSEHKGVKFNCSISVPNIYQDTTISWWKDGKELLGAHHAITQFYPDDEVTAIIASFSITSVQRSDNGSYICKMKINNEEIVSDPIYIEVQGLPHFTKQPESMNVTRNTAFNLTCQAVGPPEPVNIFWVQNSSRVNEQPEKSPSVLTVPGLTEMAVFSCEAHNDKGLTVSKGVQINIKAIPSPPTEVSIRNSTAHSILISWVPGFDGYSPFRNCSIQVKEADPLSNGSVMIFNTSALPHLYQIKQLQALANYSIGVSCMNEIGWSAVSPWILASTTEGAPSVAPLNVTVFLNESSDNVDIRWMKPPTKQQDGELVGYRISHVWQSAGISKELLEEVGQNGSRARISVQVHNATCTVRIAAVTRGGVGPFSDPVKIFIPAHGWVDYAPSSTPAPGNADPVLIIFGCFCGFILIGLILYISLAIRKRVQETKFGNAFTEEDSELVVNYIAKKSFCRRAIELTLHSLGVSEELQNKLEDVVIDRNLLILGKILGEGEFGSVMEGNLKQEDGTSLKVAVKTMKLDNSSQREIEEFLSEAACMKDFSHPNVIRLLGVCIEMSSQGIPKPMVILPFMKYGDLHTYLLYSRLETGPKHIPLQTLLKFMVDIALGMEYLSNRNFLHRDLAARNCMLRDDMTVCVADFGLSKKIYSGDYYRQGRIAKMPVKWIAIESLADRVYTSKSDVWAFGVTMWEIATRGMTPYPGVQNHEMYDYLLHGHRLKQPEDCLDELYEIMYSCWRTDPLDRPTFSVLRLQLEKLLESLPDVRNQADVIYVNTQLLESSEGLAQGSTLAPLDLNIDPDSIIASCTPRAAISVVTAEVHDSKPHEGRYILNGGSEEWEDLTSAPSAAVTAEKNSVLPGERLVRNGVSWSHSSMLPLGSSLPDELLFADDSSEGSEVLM
Experimental details: MerTk degradation in Jurkat cells (Western blot)
Type: cell-based
Details: Jurkat, 4 h, 0.001-1 μM, 4 hour-incubation at 37° C., read-out: Jurkat Max % MerTK Degradation
# Dmax annotations

Test smiles: Cn1c(=O)n([C@H]2CCC(=O)NC2=O)c2ccc(CCCOCCCN3CCN(Cc4ccc(-c5cn([C@H]6CC[C@H](O)CC6)c6nc(NCCC(F)F)ncc56)cc4)CC3)cc21
Target of assay: MerTK (Homo sapiens)
Dmax: > 50%

Test smiles: O=C(c1ccc(CNCc2ccc(-c3ccc4c(cnn4CC4CC4)c3)cc2)cc1)N1CC(C2CCN(Cc3ccc(-c4cn([C@H]5CC[C@H](O)CC5)c5nc(NCCC(F)(F)F)ncc45)cc3)CC2)C1
Target of assay: MerTK (Homo sapiens)
Dmax: < 20%

Test smiles: Cn1c(=O)n([C@H]2CCC(=O)NC2=O)c2ccc(CCOCCN3CC(N4CCN(Cc5ccc(-c6cn([C@H]7CC[C@H](O)CC7)c7nc(NCCC(F)(F)F)ncc67)cc5)CC4)C3)cc21
Target of assay: MerTK (Homo sapiens)
Dmax: > 50%

Test smiles: Cn1c(=O)n([C@H]2CCC(=O)NC2=O)c2ccc(CCN3CC(OCCN4CCN(Cc5ccc(-c6cn([C@H]7CC[C@H](O)CC7)c7nc(NCCC(F)(F)F)ncc67)cc5)CC4)C3)cc21
Target of assay: MerTK (Homo sapiens)
Dmax: 20 to 50%

Test smiles: CCCCNc1ncc2c(-c3ccc(CNCCOCCCc4ccc5c(c4)n(C)c(=O)n5[C@H]4CCC(=O)NC4=O)cc3)cn([C@H]3CC[C@H](O)CC3)c2n1
Target of assay: MerTK (Homo sapiens)
Dmax: 20 to 50%
